Listed compounds paired with reported relative viability EC50
# Tested on: HepG2
# assay.text: relative viability EC50 (midpoint between 100% and the lowest measured viability); higher = less toxic
# test.context: 72 h

compound	relative viability EC50
CC1(C)CC(=O)c2c(C(F)(F)F)nn(-c3ccc(C(N)=O)c(N[C@H]4CC[C@H](OC(=O)CN)CC4)c3)c2C1	0.0395 µM
CC(=O)Nc1ccc(NC(=S)NC(=O)c2ccc(C(C)(C)C)cc2)cc1	0.65 µM

Which relative viability EC50 is listed for C[C@]12CCC(=O)C=C1C=C[C@@H]1[C@@H]2CC[C@@]2(C)[C@H]1CC[C@@]21CCC(=O)O1 ?
> 10 µM

====

# Test system: Caco-2
# assay.text: cell viability relative to DMSO; higher = less toxic
# test.context: 72 h; 100 nM
Threshold-based label: cell viability under 90% gives Y, cell viability not under 90% gives N.

Known results for compounds:
> print(dat)
                                   compound  qualitative.label
1  Cc1c(Cl)c(C)[n+]([O-])c(Cl)c1-c1noc(-c2cc(O)c(O)c([N+](=O)[O-])c2)n1 [opicapone]                  N
2  Cc1noc(C)c1-c1ccc(-c2cc(C(N)=O)c(NC(N)=O)s2)c(O[C@H]2CCNC2)c1 [AZD3264]                  N
3  NC(=O)CC[C@H](NC(=O)Cc1ccccc1)C(=O)O [phenylacetylglutamine]                  Y
4  CC1CC(OC(=O)C(O)c2ccccc2)CC(C)(C)N1C (stereo not given) [eucatropine]                  N

Hello, is cell viability of the following compound strictly smaller than 90%? CNS(=O)(=O)Cc1ccc2[nH]cc(CCN(C)C)c2c1 [sumatriptan]
N

====

# Tested on: U2OS
# assay.text: cell viability relative to DMSO; higher = less toxic
# test.context: 72 h; 10 nM
Measured cell viability values are reported for all entries that follow.
Numeric only. Scale: %

> print(dat)
                                   compound  system.name  readout.number
1  N#Cc1c(N(CC(=O)O)CC(=O)O)sc(C(=O)O)c1CC(=O)O [Strontium Ranelate]         U2OS             102
2          CCOC(=O)[C@@H](N)Cc1ccc(O)c(O)c1         U2OS            95.7
3    Cc1ccc(-c2nn(C(C)(C)C)c3ncnc(N)c23)cc1         U2OS            94.8
4      NCCNc1ccc(NCCN)c2c1C(=O)c1ccncc1C2=O         U2OS             101
5              Cc1cccc(C)c1NC(=O)CN1CCCC1=O         U2OS            93.3
6  COc1ncc2cc(C(=O)Nc3cc(C(=O)NCc4cccc(Cl)c4)ccc3Cl)c(=O)[nH]c2n1         U2OS             102
7  CCc1ccc(CCOc2ccc(CC3SC(=O)NC3=O)cc2)nc1 (centres undefined)         U2OS            94.7
8                  Nc1nc2[nH]cnc2c(=S)[nH]1         U2OS            98.5

As a next step, examine the compound that follows.
What cell viability value was documented for this compound, N[C@@H](C(=O)N[C@@H]1C(=O)N2C(C(=O)O)=C(Cl)CS[C@H]12)c1ccccc1 ?
103

meta.source: the supplement of paper PMC13380429
